Entries below carry reported Ki on Acetylcholinesterase (Homo sapiens, UniProt P22303).
Sequence (P22303 whole entry): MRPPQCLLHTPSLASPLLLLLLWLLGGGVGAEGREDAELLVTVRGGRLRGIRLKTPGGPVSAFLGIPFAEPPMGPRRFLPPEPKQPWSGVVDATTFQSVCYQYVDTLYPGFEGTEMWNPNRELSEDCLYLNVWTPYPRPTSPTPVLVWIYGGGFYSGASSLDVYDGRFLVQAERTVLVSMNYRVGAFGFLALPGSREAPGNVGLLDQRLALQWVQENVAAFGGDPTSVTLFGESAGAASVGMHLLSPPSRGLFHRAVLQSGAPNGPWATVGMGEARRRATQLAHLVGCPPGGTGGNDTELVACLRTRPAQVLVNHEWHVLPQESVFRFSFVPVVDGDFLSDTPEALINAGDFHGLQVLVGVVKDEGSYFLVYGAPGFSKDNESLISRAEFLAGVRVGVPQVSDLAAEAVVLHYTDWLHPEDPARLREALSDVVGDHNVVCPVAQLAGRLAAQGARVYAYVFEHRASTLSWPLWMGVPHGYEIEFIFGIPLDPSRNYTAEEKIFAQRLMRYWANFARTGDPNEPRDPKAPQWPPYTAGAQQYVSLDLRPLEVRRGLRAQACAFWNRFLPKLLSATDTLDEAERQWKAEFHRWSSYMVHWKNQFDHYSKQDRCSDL
Readout Label: Ki

                                    compound                               target_desc    result
 0                         O=C1Cc2ccccc2C1=O  Acetylcholinesterase (Homo sapiens, UniProt P22303)  > 100 µM
 1                       O=C1C=Cc2ccccc2C1=O  Acetylcholinesterase (Homo sapiens, UniProt P22303)   0.32 µM
 2                  O=C1C(=O)c2cccc3cccc1c23  Acetylcholinesterase (Homo sapiens, UniProt P22303)  > 100 µM
 3             O=C1C(=O)c2cccc3c2N(CCC3)C1=O  Acetylcholinesterase (Homo sapiens, UniProt P22303)  > 100 µM
 4  Cc1cc(C)c(C(=O)C(=O)c2c(C)cc(C)cc2C)c(C)c1  Acetylcholinesterase (Homo sapiens, UniProt P22303)  > 100 µM
 5                  O=C1C(=O)N2CCCc3cccc1c32  Acetylcholinesterase (Homo sapiens, UniProt P22303)  > 100 µM
 6               O=C1C(=O)c2cccnc2-c2ncccc21  Acetylcholinesterase (Homo sapiens, UniProt P22303)  > 100 µM
 7                O=C(C(=O)C1CCCCC1)C1CCCCC1  Acetylcholinesterase (Homo sapiens, UniProt P22303)  > 100 µM
 8                 O=C1C(=O)c2sccc2-c2ccsc21  Acetylcholinesterase (Homo sapiens, UniProt P22303)  > 100 µM
 9  CC1(C)[C@@H]2CC[C@]1(C)C(=O)C2=O (racemic)  Acetylcholinesterase (Homo sapiens, UniProt P22303)  > 100 µM
10  O=C(C(=O)c1ccc([N+](=O)[O-])cc1)c1ccc([N+](=O)[O-])cc1  Acetylcholinesterase (Homo sapiens, UniProt P22303)  > 100 µM
11              O=C1C(=O)c2ccccc2CCc2ccccc21  Acetylcholinesterase (Homo sapiens, UniProt P22303)  > 100 µM
12  O=C1C(=O)c2ccc([N+](=O)[O-])c3c([N+](=O)[O-])ccc1c23  Acetylcholinesterase (Homo sapiens, UniProt P22303)  0.903 µM
13               O=C1C(=O)c2ccccc2-c2ccccc21  Acetylcholinesterase (Homo sapiens, UniProt P22303)  > 100 µM
14      CCOc1ccc(C(=O)C(=O)c2ccc(OCC)cc2)cc1  Acetylcholinesterase (Homo sapiens, UniProt P22303)  > 100 µM
15  O=C1C(=O)c2cc([N+](=O)[O-])ccc2-c2ccccc21  Acetylcholinesterase (Homo sapiens, UniProt P22303)   0.85 µM
16    COc1ccc(C(=O)C(=O)c2ccc(C(=O)O)cc2)cc1  Acetylcholinesterase (Homo sapiens, UniProt P22303)  > 100 µM
17            O=C1C(=O)c2c3ccccc3cc3cccc1c23  Acetylcholinesterase (Homo sapiens, UniProt P22303)  > 100 µM

---

Target Desc: Cholinesterase (Homo sapiens, UniProt P06276)
Sequence (P06276 whole entry): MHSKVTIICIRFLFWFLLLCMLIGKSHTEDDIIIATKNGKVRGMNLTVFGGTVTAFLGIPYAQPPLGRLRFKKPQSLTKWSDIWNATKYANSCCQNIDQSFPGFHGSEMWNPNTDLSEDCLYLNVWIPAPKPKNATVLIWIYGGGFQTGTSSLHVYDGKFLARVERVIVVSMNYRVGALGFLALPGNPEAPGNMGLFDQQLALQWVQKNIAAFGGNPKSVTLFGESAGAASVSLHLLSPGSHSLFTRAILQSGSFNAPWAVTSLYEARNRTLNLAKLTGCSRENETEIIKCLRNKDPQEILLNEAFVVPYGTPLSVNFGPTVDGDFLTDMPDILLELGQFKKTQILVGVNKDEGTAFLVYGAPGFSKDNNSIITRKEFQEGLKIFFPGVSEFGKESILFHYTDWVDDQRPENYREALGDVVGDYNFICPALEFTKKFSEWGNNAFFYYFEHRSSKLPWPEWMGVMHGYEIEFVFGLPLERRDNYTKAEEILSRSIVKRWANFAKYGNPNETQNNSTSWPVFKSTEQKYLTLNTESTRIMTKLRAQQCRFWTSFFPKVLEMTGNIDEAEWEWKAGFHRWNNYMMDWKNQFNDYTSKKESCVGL
pKi: −log10 of the molar value.
Readout Label: pKi

>>> df
                    smiles_record                               target_desc  readout_label  result
0  COc1ccccc1C(=O)C(=O)c1ccccc1OC  Cholinesterase (Homo sapiens, UniProt P06276)            pKi  < 4.00
1             O=C1C=Cc2ccccc2C1=O  Cholinesterase (Homo sapiens, UniProt P06276)            pKi    5.64
2        O=C1C(=O)N2CCCc3cccc1c32  Cholinesterase (Homo sapiens, UniProt P06276)            pKi  < 4.00
3     O=C1C(=O)c2ccccc2-c2ccccc21  Cholinesterase (Homo sapiens, UniProt P06276)            pKi    6.72
4   O=C1C(=O)c2cccc3c2N(CCC3)C1=O  Cholinesterase (Homo sapiens, UniProt P06276)            pKi  < 4.00
5      O=C(C(=O)C1CCCCC1)C1CCCCC1  Cholinesterase (Homo sapiens, UniProt P06276)            pKi  < 4.00
